Assay: Cytotoxicity against human FT33 cells assessed as inhibition of cell growth for 72 hrs by CellTiter-Blue cell viability assay
Type: toxicity, cell-based

compound: CC(=O)O[C@H]1C(=O)[C@@]2(C)[C@H]([C@H](OC(=O)c3ccccc3)[C@]3(O)C[C@H](OC(=O)[C@H](O)[C@@H](NC(=O)c4ccccc4)c4ccccc4)C(C)=C1C3(C)C)[C@]1(OC(C)=O)CO[C@@H]1C[C@@H]2O [PACLITAXEL]
IC50 at 72 h: 0.011 µM
//
compound: Cc1cc(=O)c(O)cc2c1C[C@H]1CC(C)(C)/C=C/C[C@]3(C)Oc4cc(O)c(=O)cc(C)c4C[C@H]3C[C@H](O)[C@@]1(C)O2
IC50 at 72 h: 0.17 µM
